test system: human lung adenocarcinoma epithelial cell line A549; test: MTT assay, inhibition of tumor cell growth (A549); format: cell-based; settings: 72 hours incubation, read-out: IC50 on the tumor cells A549
pIC50: −log10 of the molar value.
measured metric: pIC50

molecule	tested target	value measured
CON=C1C(=C2C(=O)N(C(C)C)c3cc(Cl)ccc32)Oc2ccccc21	human lung adenocarcinoma epithelial cell line A549	4.92
CON=C1C(=C2C(=O)Nc3c(F)cccc32)Oc2ccccc21	human lung adenocarcinoma epithelial cell line A549	5.11
O=C1Oc2ccccc2C1=C1C(=O)N(Cc2ccccc2)c2ccc(Cl)cc21	human lung adenocarcinoma epithelial cell line A549	4.40
CCN1C(=O)C(=C2Oc3ccc(Cl)cc3C2=O)c2cccc(F)c21	human lung adenocarcinoma epithelial cell line A549	5.74
O=C1C(=C2C(=O)N(Cc3ccccc3)c3ccccc32)Oc2ccccc21	human lung adenocarcinoma epithelial cell line A549	5.15
CC(C)N1C(=O)C(=C2Oc3ccccc3C2=NO)c2cc(Cl)ccc21 [Compound 47]	human lung adenocarcinoma epithelial cell line A549	5.77
CCN1C(=O)C(=C2Oc3ccc(Cl)cc3C2=O)c2cc(Cl)ccc21	human lung adenocarcinoma epithelial cell line A549	5.40
CON=C1C(=C2C(=O)N(Cc3ccccc3)c3ccccc32)Oc2ccccc21	human lung adenocarcinoma epithelial cell line A549	5.15

* * *

system: human lung adenocarcinoma epithelial cell line A549; assay: MTT assay, inhibition of tumor cell growth (A549); assay type: cell-based; conditions: 72 hours incubation, read-out: IC50 on the tumor cells A549
Grouping key: IC50. Bins: band A = under 6 µM, band B = from 6 µM up to 10 µM, band C = 10 µM and over

compound	tested target	class assignment
CCN1C(=O)C(=C2Oc3ccccc3C2=O)c2ccc(Cl)cc21	human lung adenocarcinoma epithelial cell line A549	band C
CCN1C(=O)C(=C2Oc3c(Cl)cccc3C2=O)c2cccnc21 [Compound 85]	human lung adenocarcinoma epithelial cell line A549	band C
CC(C)N1C(=O)C(=C2Oc3ccccc3C2=O)c2cc(F)ccc21	human lung adenocarcinoma epithelial cell line A549	band C
Cc1cccc2c1OC(=O)C2=C1C(=O)N(C)c2ncccc21	human lung adenocarcinoma epithelial cell line A549	band A
CON=C1C(=C2C(=O)N(C3OC(CO)C(O)C(O)C3O)c3ccc(Cl)cc32)Oc2ccccc21 (stereo not drawn)	human lung adenocarcinoma epithelial cell line A549	band A
CN1C(=O)C(=C2C(=O)Oc3ccccc32)c2cnccc21	human lung adenocarcinoma epithelial cell line A549	band A
CCN1C(=O)C(=C2Oc3ccccc3C2=O)c2cccc(F)c21	human lung adenocarcinoma epithelial cell line A549	band B
CCN1C(=O)C(=C2Oc3ccccc3C2=NO)c2cccc(F)c21	human lung adenocarcinoma epithelial cell line A549	band B
Cc1ccc2c(c1)C(=C1Oc3ccccc3C1=O)C(=O)N2C(C)C	human lung adenocarcinoma epithelial cell line A549	band C

* * *

tested on: human hepatocellular carcinoma cell line HepG-2; experiment: MTT assay, inhibition of tumor cell growth (HepG2); type: cell-based; conditions: 72 hours incubation, read-out: IC50 on the tumor cells HepG2
measured metric: IC50 (µM)

compound	tested target	limit qualifier	value measured
CCN1C(=O)C(=C2Oc3ccc(Cl)cc3C2=NO)c2ccccc21	human hepatocellular carcinoma cell line HepG-2	=	42
CC(C)N1C(=O)C(=C2Oc3ccc(Cl)cc3C2=NO)c2ccc(Cl)cc21	human hepatocellular carcinoma cell line HepG-2	=	2.6
O=C1Oc2ccccc2C1=C1C(=O)N(C2OC(CO)C(O)C(O)C2O)c2ccccc21 (centres unmarked)	human hepatocellular carcinoma cell line HepG-2	>	100
O=C1Nc2c(F)cccc2C1=C1Oc2ccccc2C1=NO	human hepatocellular carcinoma cell line HepG-2	=	29
Cc1ccc2c(c1)C(=C1Oc3ccccc3C1=O)C(=O)N2Cc1ccccc1	human hepatocellular carcinoma cell line HepG-2	=	25
